Target: human EAAT3 (Homo sapiens)
Sequence (P43005 1-524): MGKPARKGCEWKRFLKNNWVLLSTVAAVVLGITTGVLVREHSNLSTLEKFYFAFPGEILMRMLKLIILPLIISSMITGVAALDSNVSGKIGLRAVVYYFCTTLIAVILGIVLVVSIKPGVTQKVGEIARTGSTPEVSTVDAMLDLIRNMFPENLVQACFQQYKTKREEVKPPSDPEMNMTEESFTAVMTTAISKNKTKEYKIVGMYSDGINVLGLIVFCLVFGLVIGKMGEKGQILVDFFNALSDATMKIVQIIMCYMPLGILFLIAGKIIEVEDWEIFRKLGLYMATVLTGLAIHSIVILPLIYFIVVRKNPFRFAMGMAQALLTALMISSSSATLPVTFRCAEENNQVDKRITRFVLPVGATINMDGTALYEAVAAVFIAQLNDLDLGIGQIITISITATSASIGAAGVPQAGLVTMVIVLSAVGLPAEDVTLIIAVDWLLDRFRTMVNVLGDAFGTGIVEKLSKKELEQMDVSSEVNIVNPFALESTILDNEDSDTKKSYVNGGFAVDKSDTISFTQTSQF
Test: Inhibition of [14C]-glutamic acid uptake by EAAT3 expressed in MDCK or COS-1 cells
Conditions: 1 μM L-[14C]-glutamic acid, 12 minutes
MEASUREMENT LABEL: IC50 (µM)
Number only, in µM; omit the unit.

# MOLECULE, SYSTEM NAME, MEASUREMENT LABEL, OBSERVED MEASUREMENT
measured = [
    ("N[C@H](C(=O)O)[C@H](OCc1cccc(NC(=O)c2ccc(C(F)(F)F)cc2)c1)C(=O)O [TFB-TBOA, reference compound]", "human EAAT3 (Homo sapiens)", "IC50", 0.028),
    ("N[C@H](C(=O)O)[C@H](OCc1cccc(NC(=O)c2ccc(I)cc2)c1)C(=O)O", "human EAAT3 (Homo sapiens)", "IC50", 0.056),
]

Let's switch to this molecule now.
Assay human EAAT3 (Homo sapiens), sample NC(C(=O)O)C(OCc1ccccc1)C(=O)O [L-TBOA, threo-β-benzyloxyaspartic acid, reference compound] , IC50 read: 1.3
